# Tgt: Acyl-CoA:cholesterol acyltransferase (Oryctolagus cuniculus, UniProt Q95214)
# Sequence (Q95214 whole entry): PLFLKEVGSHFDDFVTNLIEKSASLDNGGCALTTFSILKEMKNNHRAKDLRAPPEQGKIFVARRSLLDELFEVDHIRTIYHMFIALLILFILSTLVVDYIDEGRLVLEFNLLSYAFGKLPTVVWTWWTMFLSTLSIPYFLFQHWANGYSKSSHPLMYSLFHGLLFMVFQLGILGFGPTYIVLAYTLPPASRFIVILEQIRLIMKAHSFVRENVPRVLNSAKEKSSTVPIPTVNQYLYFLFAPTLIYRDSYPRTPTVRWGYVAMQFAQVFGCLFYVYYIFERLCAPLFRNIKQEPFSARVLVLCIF
# Method Summary: Inhibitory activity against acyl-CoA: cholesterol acyltransferase (ACAT) in microsomes from cholesterol-fed rabbit intestinal mucosa
Parameter: IC50 (nM)
Answer with a number only, understood to be in nM.

CC(C)c1cccc(C(C)C)c1NC(=O)NCC1(c2ccc(OP(=O)(O)O)cc2)O[C@H](C)[C@@H](C)O1
1080

Attention now shifts to the item below.
// query Return reported IC50. Input compound: `CC(C)c1cccc(C(C)C)c1NC(=O)NCC1(c2ccccc2)O[C@H](C)[C@@H](C)O1`
// result 27

* * *

# Tgt: Acyl-CoA:cholesterol acyltransferase (Oryctolagus cuniculus)
# Method Summary: Inhibitory activity against acyl-CoA: cholesterol acyltransferase (ACAT) in microsomes from cholesterol-fed rabbit thoracic aorta
// IC50 lookup, one value per entry
Note: unit µM is implicit; provide only the numeric part.

CC(C)c1cccc(C(C)C)c1NC(=O)NCC1(c2ccccc2)O[C@H](C)[C@@H](C)O1
0.0242

With those in mind, consider the next molecule.
// query Tell me its IC50 given `CC(C)c1cccc(C(C)C)c1NC(=O)NCC1(c2ccc(OP(=O)(O)O)cc2)O[C@H](C)[C@@H](C)O1` as the entry.
// result 2.55

Cited source for all entries: ChEMBL document CHEMBL1128773
